- TARGET_OF_ASSAY: human VR1 (Homo sapiens)
- Construct: expressed in transfected cells; host or cells: HEK293
- Sequence (Q8NER1 whole entry): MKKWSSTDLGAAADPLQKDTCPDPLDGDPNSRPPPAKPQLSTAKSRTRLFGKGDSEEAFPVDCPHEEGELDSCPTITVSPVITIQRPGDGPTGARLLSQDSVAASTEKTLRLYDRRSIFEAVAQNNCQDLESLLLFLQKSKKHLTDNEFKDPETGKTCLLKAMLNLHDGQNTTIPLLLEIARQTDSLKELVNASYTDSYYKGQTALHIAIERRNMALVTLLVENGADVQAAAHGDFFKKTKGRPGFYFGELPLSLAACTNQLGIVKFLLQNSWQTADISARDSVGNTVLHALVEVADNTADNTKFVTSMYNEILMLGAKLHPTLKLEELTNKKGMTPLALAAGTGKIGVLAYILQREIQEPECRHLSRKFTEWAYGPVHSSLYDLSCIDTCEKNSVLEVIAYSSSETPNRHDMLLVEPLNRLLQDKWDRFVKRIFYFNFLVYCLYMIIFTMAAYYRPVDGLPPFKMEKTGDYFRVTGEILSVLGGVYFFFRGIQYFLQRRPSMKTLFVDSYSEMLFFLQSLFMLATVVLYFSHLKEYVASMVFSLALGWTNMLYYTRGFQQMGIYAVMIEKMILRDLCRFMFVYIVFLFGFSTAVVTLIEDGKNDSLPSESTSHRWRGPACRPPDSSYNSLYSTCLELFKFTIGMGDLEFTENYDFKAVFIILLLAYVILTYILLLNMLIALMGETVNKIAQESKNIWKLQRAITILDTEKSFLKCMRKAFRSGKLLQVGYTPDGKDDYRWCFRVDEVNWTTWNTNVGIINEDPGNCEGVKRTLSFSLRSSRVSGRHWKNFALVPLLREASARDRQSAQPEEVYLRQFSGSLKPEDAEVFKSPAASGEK
- TEST_METHOD_NOTES: Human VR1 functional assay (FLIPR intracellular Ca2+)
- Type: cell-based
- CONDITION_INFO: inhibition of capsaicin response, 1 μM
Tag: fulfilled if measured h % I (1 μM) is not below 20%, not fulfilled if it is.

{"columns": ["COMPOUND", "CLASS_NAME"],
 "data": [
  ["Cc1cc(NC(=O)CCc2ccc(SC(F)(F)F)cc2)cnc1-n1cnc(Cl)c1Cl", "fulfilled"],
  ["Cc1cc(NC(=O)/C=C/c2ccc(C(F)(F)F)cn2)cnc1-n1cnc(Cl)c1Cl", "not fulfilled"],
  ["Cc1cc(NC(=O)CCc2ccc(F)cc2)cnc1-n1cnc(Cl)c1Cl", "not fulfilled"]
]}

Request: Evaluate "O=C(CCc1ccc(C(F)(F)F)cc1)Nc1ccc(-n2ccc3ccccc32)c(C(F)(F)F)c1" : h % I (1 μM) at minimum 20%?
Result: fulfilled

Request: // inclusive: h % I (1 μM) at least 20%? input: "O=C(CCc1ccc(F)cc1)Nc1ccc(-n2ccnc2)c(C(F)(F)F)c1"
Result: fulfilled

Request: Please indicate if the recorded h % I (1 μM) for Cc1cc(NC(=O)CCc2ccc([S+]([O-])C(F)(F)F)cc2)cnc1-n1cnc(Cl)c1Cl (stereo not drawn) meets or exceeds 20%.
Result: fulfilled

Request: hey, is h % I (1 μM) for this one >= 20%? "CC(C)(C)c1ccc(CCC(=O)Nc2ccc(-n3ccnc3)c(C(F)(F)F)c2)cc1"
Result: fulfilled

Request: Decide: is the reported value of h % I (1 μM) for Cc1cc(NC(=O)/C=C/c2ccc([S+]([O-])C(F)(F)F)cc2)cnc1-n1cnc(Cl)c1Cl (stereo not drawn) equal to or greater than 20%?
Result: not fulfilled

Request: Does the reported h % I (1 μM) for "Cc1cc(NC(=O)CCc2ccc(C(F)(F)F)cn2)cnc1-n1cnc(Cl)c1Cl" fall at or above the 20% mark?
Result: fulfilled

Request: Would you say "CC(C)(C)c1ccc(CCC(=O)Nc2cnc(-c3cccc(O)c3)cn2)cc1" shows h % I (1 μM) at minimum 20%?
Result: not fulfilled

====

Attribute: h % I (5 μM)
- TARGET_OF_ASSAY: human VR1 (Homo sapiens)
- Construct: expressed in transfected cells; host or cells: HEK293
- TEST_METHOD_NOTES: Human VR1 functional assay (FLIPR intracellular Ca2+)
- Format: cell-based
- CONDITION_INFO: inhibition of capsaicin response, 5 μM
Just the number in %, nothing appended.

{"columns": ["MOLECULE", "MEASURED"],
 "data": [
  ["CC(C)(C)c1ccc(CCC(=O)Nc2cnc(-c3ccc(O)cc3)cn2)cc1 [Cpd 185]", 24],
  ["CC(C)(C)c1ccc(CCC(=O)Nc2ccc(-n3ccnc3)c(C(F)(F)F)c2)cc1 [Cpd 264]", 48]
]}

Request: Find h % I (5 μM) (human VR1 (Homo sapiens)) for the entry CC(=O)Nc1cccc(-c2ccc(NC(=O)CCc3ccc(C(C)(C)C)cc3)c3ccccc23)c1 [Cpd 81]
Result: 11

Request: State its h % I (5 μM) on human VR1 (Homo sapiens): CC(C)(C)c1ccc(CCC(=O)Nc2cnc(-c3cccnc3)cn2)cc1 [Cpd 187]
Result: 15

Request: Which h % I (5 μM) is reported with human VR1 (Homo sapiens) for this entry: NC(=O)c1cccc(-c2ccc(NC(=O)CCc3ccc(C(F)(F)F)cc3)c3ccccc23)c1 [Cpd 83] ?
Result: 31

Request: Checklist item: h % I (5 μM) tested on human VR1 (Homo sapiens), entry CC(=O)Nc1cccc(-c2ccc(NC(=O)CCc3ccc(C(F)(F)F)cc3)c3ccccc23)c1 [Cpd 84] , value?
Result: 43

Request: Request - read-out h % I (5 μM) | tested on human VR1 (Homo sapiens) | molecule CC(C)(C)c1ccc(CCC(=O)Nc2ccc(-c3cccc(O)c3)c3ccccc23)cc1 [Cpd 82]
Result: 39

Request: Lab note: need h % I (5 μM) for CC(C)(C)c1ccc(CCC(=O)Nc2cnc(-c3ccc(CO)cc3)cn2)cc1 [Cpd 186] on human VR1 (Homo sapiens), anyone have it?
Result: 39

Request: # returns recorded h % I (5 μM) (system: human VR1 (Homo sapiens)) for O=C(CCc1ccc(C(F)(F)F)cc1)Nc1ccc(-c2cccc(O)c2)c2ccccc12 [Cpd 85]
Result: 21

Request: Request body: readout h % I (5 μM), system human VR1 (Homo sapiens), query O=C(CCc1ccc(C(F)(F)F)cc1)Nc1ccc(-c2ccc(CO)cc2)c(C(F)(F)F)c1 [Cpd 223] . Return the value.
Result: 100
